Data provenance is paper PMC9482650.

- TESTED_TARGET: T1, ARHGEF11, O15085
- T1 sequence (O15085 42-136, limits assumed, looked up): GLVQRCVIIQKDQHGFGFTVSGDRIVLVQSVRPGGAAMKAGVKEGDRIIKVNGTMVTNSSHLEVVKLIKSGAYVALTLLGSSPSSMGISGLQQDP
- EXPERIMENTAL_PROTOCOL: holdup assay
- Set-up: key: below the threshold = too weak to quantify, mostly under pKd 3.1 to 4
- CONDITION_CONTEXT: plain residues with an end cap or a label only (N-terminal biotin on a linker: ado-ado)
Assign T to entries whose pKd meets or exceeds 4; assign F to the rest.

Use these answered entries as a reference point.
PKRSFIESNV [TANC1, Q9C0D5] : F
CLREWCDAFL [BANF1, O75531] : F
DDENIRTSDV [PLEKHA2, Q9HB19] : T

Next, consider the following binder.
Test whether the binder YYKRPVQEWV [MMP24, Q9Y5R2] records pKd of 4 or higher.
T
